- TEST_SYSTEM: human ether-à-go-go-related gene (hERG) potassium channel (human);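 note: peak tail current of the secondary pulse compared with the same well before compound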
- ASSAY_EXPLANATION: primary screen, population patch clamp on CHO cells stably expressing hERG; higher = less effect of the substance
Among all 310,000 compounds or so, about 14,000 (4.5%) showed an effect of 50% or more. The effect is printed as a negative number. Many of the other results were omitted from the sample, so strong results are more common in it than they were.
QUANTITY_MEASURED: hERG current change (%, negative = inhibition) at 10uM (%)
The answer is to be given in %; state only the numeric part.

Requested read-out: hERG current change (%, negative = inhibition) at 10uM. Entry: CC(C)C(NS(=O)(=O)c1ccc2c(c1)OCCO2)C(=O)NCCc1ccccn1 (stereo not shown) 6.06

Requested read-out: hERG current change (%, negative = inhibition) at 10uM. Entry: CCOC(=O)C1(CCOc2ccccc2)CCN(Cc2ccc(OCCO)cc2)CC1 -77.9

Requested read-out: hERG current change (%, negative = inhibition) at 10uM. Entry: Cc1cccc(NC(=O)CSc2nnnn2-c2cccnc2)c1 -6.57

Requested read-out: hERG current change (%, negative = inhibition) at 10uM. Entry: COc1cc(CNCCc2ccc3c(c2)OCO3)cc(OC)c1OC.O=C(O)C(=O)O -14.2

Requested read-out: hERG current change (%, negative = inhibition) at 10uM. Entry: CN1CCN(c2ccc(NC(=O)c3ccco3)cc2Cl)CC1 -16.8

Requested read-out: hERG current change (%, negative = inhibition) at 10uM. Entry: CN1CCN(c2ccc(NC(=O)c3ccc([N+](=O)[O-])o3)cc2Cl)CC1 -57.3

Requested read-out: hERG current change (%, negative = inhibition) at 10uM. Entry: COc1ccc([N+](=O)[O-])cc1N(CC(O)CN1CCCC1)S(=O)(=O)c1ccc(C)cc1 (stereo not shown) -2.85

Requested read-out: hERG current change (%, negative = inhibition) at 10uM. Entry: CCOC(=O)c1cc2c(s1)-c1c(C)cccc1OC2 7.36

Requested read-out: hERG current change (%, negative = inhibition) at 10uM. Entry: COc1ccc(CC(=O)Nc2c(C(N)=O)oc3ccccc23)cc1OC 11.4

Requested read-out: hERG current change (%, negative = inhibition) at 10uM. Entry: COc1cc(C(=O)NCCNC(=O)c2ccc(C)nc2)cc(OC)c1OC 11.8

* * *

- TEST_SYSTEM: human ether-à-go-go-related gene (hERG) potassium channel (human, UniProt Q12809);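 note: peak tail current of the secondary pulse compared with the same well before compound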
- Sequence (Q12809 whole entry, looked up): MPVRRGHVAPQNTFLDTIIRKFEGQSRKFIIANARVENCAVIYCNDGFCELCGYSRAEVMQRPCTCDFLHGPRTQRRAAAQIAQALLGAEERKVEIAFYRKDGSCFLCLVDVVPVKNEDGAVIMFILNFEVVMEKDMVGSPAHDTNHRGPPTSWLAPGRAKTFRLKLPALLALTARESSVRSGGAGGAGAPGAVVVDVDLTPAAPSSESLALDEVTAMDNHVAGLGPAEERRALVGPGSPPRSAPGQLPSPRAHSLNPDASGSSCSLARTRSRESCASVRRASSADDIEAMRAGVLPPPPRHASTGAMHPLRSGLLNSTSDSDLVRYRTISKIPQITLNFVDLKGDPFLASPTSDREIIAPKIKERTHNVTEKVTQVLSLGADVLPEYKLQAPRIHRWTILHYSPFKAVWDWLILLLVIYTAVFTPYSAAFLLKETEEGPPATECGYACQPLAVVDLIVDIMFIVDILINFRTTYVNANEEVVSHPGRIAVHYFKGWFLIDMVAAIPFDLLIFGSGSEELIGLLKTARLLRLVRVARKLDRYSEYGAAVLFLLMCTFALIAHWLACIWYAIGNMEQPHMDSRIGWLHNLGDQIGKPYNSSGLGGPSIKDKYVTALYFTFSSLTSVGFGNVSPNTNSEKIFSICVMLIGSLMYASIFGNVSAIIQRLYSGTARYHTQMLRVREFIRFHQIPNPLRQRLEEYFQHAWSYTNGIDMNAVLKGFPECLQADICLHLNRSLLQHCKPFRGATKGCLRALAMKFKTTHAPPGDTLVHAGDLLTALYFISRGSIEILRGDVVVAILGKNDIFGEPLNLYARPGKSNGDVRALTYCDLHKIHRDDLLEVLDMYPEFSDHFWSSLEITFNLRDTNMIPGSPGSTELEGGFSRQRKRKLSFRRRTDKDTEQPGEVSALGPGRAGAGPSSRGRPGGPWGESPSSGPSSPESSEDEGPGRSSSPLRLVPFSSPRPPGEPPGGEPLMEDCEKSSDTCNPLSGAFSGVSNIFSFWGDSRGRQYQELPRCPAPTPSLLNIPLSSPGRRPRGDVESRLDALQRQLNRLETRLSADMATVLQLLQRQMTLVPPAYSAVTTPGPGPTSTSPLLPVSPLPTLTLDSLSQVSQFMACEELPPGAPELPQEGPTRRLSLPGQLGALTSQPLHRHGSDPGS
- ASSAY_EXPLANATION: primary screen, population patch clamp on CHO cells stably expressing hERG; higher = less effect of the substance
Out of some 310,000 compounds screened, about 14,000 (4.5%) showed an effect of 50% or more. The effect is printed as a negative number. Many of the other results were omitted from the sample, so strong results are more common in it than they were.
QUANTITY_MEASURED: hERG current change (%, negative = inhibition) at 10uM (%)
The answer is to be given in %; state only the numeric part.

Requested read-out: hERG current change (%, negative = inhibition) at 10uM. Entry: CCN1C(=O)C(CC(=O)Nc2ccc(OC)cc2)N(Cc2cccnc2)C1=S (stereo not shown) -2.39

Requested read-out: hERG current change (%, negative = inhibition) at 10uM. Entry: CC[C@@H]1CN(C)[C@H]2Cc3c([nH]c4ccccc34)C(=O)C[C@@H]1[C@@H]2C(=O)OC 11.8

Requested read-out: hERG current change (%, negative = inhibition) at 10uM. Entry: Cc1ccc(NC2=C(Cl)C(=O)OC2OC(=O)c2ccc(C)cc2)cc1 (stereo not shown) -51.7

Requested read-out: hERG current change (%, negative = inhibition) at 10uM. Entry: COc1ccc(CCN(C)C(=O)c2cc(-c3ccccc3)nc3ccccc23)cc1OC -4.79

Requested read-out: hERG current change (%, negative = inhibition) at 10uM. Entry: CC(C)C(=O)OCC(=O)Nc1ccc(N=Nc2ccccc2)cc1 4.2

Requested read-out: hERG current change (%, negative = inhibition) at 10uM. Entry: Cc1ccc(S(=O)(=O)NC2=NCN(CCN3CCOCC3)CN2)cc1 8.55

Requested read-out: hERG current change (%, negative = inhibition) at 10uM. Entry: Cn1cc(C(=O)N2CCCCC2)c2ccccc21 4.66

Requested read-out: hERG current change (%, negative = inhibition) at 10uM. Entry: CCOc1ccccc1CN1CCN(Cc2ccc3cc(F)ccc3n2)CC1CCO (stereo not shown) -65.7

Requested read-out: hERG current change (%, negative = inhibition) at 10uM. Entry: CC1CCN(Cc2cc(=O)oc3cc(O)c(Cl)cc23)CC1 9.11

Requested read-out: hERG current change (%, negative = inhibition) at 10uM. Entry: COc1ccc(C)c2sc(N(CCCN(C)C)C(=O)c3ccc(S(=O)(=O)N4CCc5ccccc5C4)cc3)nc12.Cl 9.73

Requested read-out: hERG current change (%, negative = inhibition) at 10uM. Entry: COc1ccc(OC)c2sc(N(CCCN(C)C)C(=O)c3ccc(S(=O)(=O)N4CCc5ccccc5C4)cc3)nc12.Cl -8.54

Requested read-out: hERG current change (%, negative = inhibition) at 10uM. Entry: O=S(=O)(CCc1nc2ccccc2o1)c1ccc(Cl)cc1 -7.14

Requested read-out: hERG current change (%, negative = inhibition) at 10uM. Entry: CN(c1ccccc1)c1nc2ccsc2c(=O)s1 4.47

Requested read-out: hERG current change (%, negative = inhibition) at 10uM. Entry: CCCn1nc(Oc2nc(NCC)nc(NCC)n2)ccc1=O 1.1

Requested read-out: hERG current change (%, negative = inhibition) at 10uM. Entry: Cc1cccc(N2CN=C3SCC(=O)N3C2)c1 0.175

Requested read-out: hERG current change (%, negative = inhibition) at 10uM. Entry: Cc1nc(Sc2ccc(Cl)cc2)c(C#N)c(C)c1[N+](=O)[O-] 6.1

Requested read-out: hERG current change (%, negative = inhibition) at 10uM. Entry: CCN1C(=O)/C(=C\N2CCN(c3ccc(F)cc3)CC2)SC1=S 15.5

Requested read-out: hERG current change (%, negative = inhibition) at 10uM. Entry: O=C(Cn1cc([N+](=O)[O-])cn1)NCc1ccccc1 20.9

Requested read-out: hERG current change (%, negative = inhibition) at 10uM. Entry: Cc1ccc(NC2=C(Cl)C(=O)OC2OC(=O)c2ccco2)cc1 (stereo not shown) -42.2

Requested read-out: hERG current change (%, negative = inhibition) at 10uM. Entry: Cc1ccc(NC(=O)COc2ccccc2CNC(C)(C)CC(C)(C)C)cc1 -22.7

Requested read-out: hERG current change (%, negative = inhibition) at 10uM. Entry: CC[C@H]1CN(C)C[C@@]2(C(=O)OC)Cc3c([nH]c4ccccc34)C(=O)C[C@@H]12 9.71

Requested read-out: hERG current change (%, negative = inhibition) at 10uM. Entry: Cc1nc2nc[nH]n2c(=O)c1NS(C)(=O)=O 4.48

Requested read-out: hERG current change (%, negative = inhibition) at 10uM. Entry: CC[C@H]1CN(C)CCc2c([nH]c3ccccc23)C(=O)C[C@@H]1/C(=C\OC)C(=O)OC -69.5

Requested read-out: hERG current change (%, negative = inhibition) at 10uM. Entry: O=[N+]([O-])c1ccccc1/C=C/C=N/Nc1ccc(S(=O)(=O)Nc2ccc(Cl)cc2)cc1[N+](=O)[O-] 20.8

Requested read-out: hERG current change (%, negative = inhibition) at 10uM. Entry: O=C(Nc1nccs1)c1ccc(F)c(S(=O)(=O)N2CCOCC2)c1 -18.8

Requested read-out: hERG current change (%, negative = inhibition) at 10uM. Entry: Cc1cc(C)cc(C(=O)NC(CC(N)=O)c2ccc(NCCN3CCCC3)c([N+](=O)[O-])c2)c1 (stereo not shown) 10.5

Requested read-out: hERG current change (%, negative = inhibition) at 10uM. Entry: C=C(C)COc1ccc2c(C)c(CCC(=O)NC3CC3)c(=O)oc2c1 -2.92

Requested read-out: hERG current change (%, negative = inhibition) at 10uM. Entry: CC(C)(C)c1ccc(C(=O)NCCC(=O)NCc2ccco2)cc1 -36.1

* * *

Consider the following molecules; for each one, report its hERG current change (%, negative = inhibition) at 10uM.
- TEST_SYSTEM: human ether-à-go-go-related gene (hERG) potassium channel (human);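 note: peak tail current of the secondary pulse compared with the same well before compound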
- ASSAY_EXPLANATION: primary screen, population patch clamp on CHO cells stably expressing hERG; higher = less effect of the substance
The whole screen tested about 310,000 compounds, of which about 14,000 (4.5%) showed an effect of 50% or more. Effects have a minus sign here. The sample as a whole holds a higher share of strong results than the screen did.
The answer is to be given in %; state only the numeric part.

Requested read-out: hERG current change (%, negative = inhibition) at 10uM. Entry: O=C(Nc1ccc2[nH]c(=O)[nH]c2c1)C(F)(F)F 14.9

Requested read-out: hERG current change (%, negative = inhibition) at 10uM. Entry: CNC(=S)N(CCc1c(C)[nH]c2ccc(OC)cc12)Cc1cccnc1 9.25

Requested read-out: hERG current change (%, negative = inhibition) at 10uM. Entry: O=C(CCC(=O)c1ccc(F)cc1)NC1CCCN(Cc2ccccc2F)C1 (stereo not shown) -19.4

Requested read-out: hERG current change (%, negative = inhibition) at 10uM. Entry: NS(=O)(=O)c1ccc(NCc2ccccc2OCc2ccc(F)cc2)cc1 -17

Requested read-out: hERG current change (%, negative = inhibition) at 10uM. Entry: COCCNC(=O)c1cc(S(=O)(=O)N2CCCCC2)ccc1N1CCOCC1 1.23

Requested read-out: hERG current change (%, negative = inhibition) at 10uM. Entry: CCOC(=O)N1CCC(c2cc(=O)n3[nH]cc(C(=O)OC)c3n2)CC1 9.34

Requested read-out: hERG current change (%, negative = inhibition) at 10uM. Entry: O=C(O)C1CCCCC1C(=O)NCCCN1CCOCC1 (stereo not shown) -1.05

Requested read-out: hERG current change (%, negative = inhibition) at 10uM. Entry: CCOc1ccc(CN(C)C(=O)[C@H](Cc2ccccc2)NC(=O)OCc2ccccc2)cc1OC -15.7

Requested read-out: hERG current change (%, negative = inhibition) at 10uM. Entry: FC(F)Sc1ccc(-n2cc(-c3ccccc3)[n+]3c2CCC3)cc1.[Br-] -77.9

Requested read-out: hERG current change (%, negative = inhibition) at 10uM. Entry: CCCNC(=O)Cn1cccc1C(=O)c1ccccc1 14.7

Requested read-out: hERG current change (%, negative = inhibition) at 10uM. Entry: COC(=O)C1=C(N)Oc2cc(C)n(CC3CCCO3)c(=O)c2C1c1ccc(Cl)c(Cl)c1 (stereo not shown) 3.95

Requested read-out: hERG current change (%, negative = inhibition) at 10uM. Entry: Cc1ccccc1C(=O)c1cccn1CC(=O)NCCCN1CC(C)CC(C)C1 (stereo not shown) -72.1

Requested read-out: hERG current change (%, negative = inhibition) at 10uM. Entry: O=C(NCCc1nnc2ccc(NCc3ccccc3Cl)nn12)c1ccccc1 10.4

Requested read-out: hERG current change (%, negative = inhibition) at 10uM. Entry: COc1ccc(/C=N/NC(=O)C2CC2)c(OC)c1OC 12.9

Requested read-out: hERG current change (%, negative = inhibition) at 10uM. Entry: O=C(CSc1nc2ncccc2[nH]1)NC1CCCC1 7.42

Requested read-out: hERG current change (%, negative = inhibition) at 10uM. Entry: COc1ccc(-c2cn(-c3ccc(SC(F)F)cc3)c3[n+]2CCC3)cc1OC.[Br-] -62.4

Requested read-out: hERG current change (%, negative = inhibition) at 10uM. Entry: Cc1cc(C)cc(NC(=O)[C@@H](NC(=O)c2ccco2)C(C)C)c1 5.62

Requested read-out: hERG current change (%, negative = inhibition) at 10uM. Entry: O=C(Cn1cccc1C(=O)c1ccccc1)NCCCc1ccccc1 -8.33

Requested read-out: hERG current change (%, negative = inhibition) at 10uM. Entry: O=S(=O)(NCc1cccnc1)c1ccc(Cl)s1 6.91
